- Procedure text: proteolytic stability in bovine plasma (HPLC, modified Frohman method)
- Measurement context: bovine plasma
Where no end group is shown, it is not given here.
Quantity measured: remaining at 1 h (%)
One number for each entry, in %.

// YADAIFTNSYRKVLGQLSARKLLQDILNRQQG-NH2 [Leu²⁷ bGRF(1-32)NH₂, reference compound] : remaining at 1 h value = 47
